The measured values listed here are drawn from the supplement of paper PMC10567573.

B1: GLT8D2 (parent)
chain: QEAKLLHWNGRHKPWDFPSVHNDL

variants of: B1; assay: protein stability index of a GFP-peptide fusion (GPS, HEK-293T) (PSI 1-6); higher = more stable; details: c terminus: a fixed tail appended;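 also: lentivirally expressed fusions sorted by FACS into six bins by GFP to DsRed ratio, PSI derived from sequencing read proportions per bin multiplied by bin number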

var | protein stability index
N9K | 2.92
L24V | 2.42
A3M | 3.06
L5A | 3.04
P14G | 2.87
E2V | 1.89
F17A | 3.45
L24I | 2.44
K13M | 2.94
P14N | 2.66
L6Y | 2.56
